Origin of values: patent US20050282743A1

Target: T1, GST-INADL PDZ domain 8 (Homo sapiens (Human)), Q8NI35
T1 chain: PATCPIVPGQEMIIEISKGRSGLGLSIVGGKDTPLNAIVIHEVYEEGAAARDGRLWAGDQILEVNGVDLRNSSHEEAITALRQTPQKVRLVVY
Assay: G' assay; note: key of the grades not given here
outcomeMeasure: Classification

The following binders have reported results that may help.
| binder | Classification |
| --- | --- |
| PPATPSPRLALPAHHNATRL (modifications not checked) [Na+/Pi cotransporter 2] | 1 A450 class |
| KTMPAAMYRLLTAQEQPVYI (modifications not checked) [MINT-1] | 1 A450 class |
| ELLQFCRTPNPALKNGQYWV (modifications not checked) [CSPG4 (chondroitin sulfae proteoglycan 4, melanoma-associated)] | 3 A450 class |
| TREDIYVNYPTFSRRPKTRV (modifications not checked) [DNAM-1] | 5 A450 class |

Exam item: Given the entry INSVGSTASSSQPLLVHDDV (modifications not checked) [c-kit receptor] , report its measured Classification.
Marked response: 1 A450 class

Exam item: Next binder: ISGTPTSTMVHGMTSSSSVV (modifications not checked) [Clasp-2]
Marked response: 1 A450 class
